// data source = patent US20170253607A1

biological target: HIV-1 PR (Human immunodeficiency virus type 1 group M subtype B, UniProt P04585); assay: HIV-protease inhibitory activity assay (FRET peptide substrate); conditions: Test Example 1
Below, each entry is listed with its recorded IC50.
The figure you give is taken to be in nM; do not add the unit.

Here is how some compounds turned out for IC50.
INSERT INTO assay_data (compound, recorded_measurement) VALUES
  ('COc1ccc(S(=O)(=O)N(CC(C)C)CC(O)C(Cc2ccc(N(C)Cc3ccc(OC)c(-c4sc5c(c4C(=O)O)CC(C)(C)CC5)c3)cc2)NC(=O)OC2COC3(C)OCCC23)cc1 (centres unmarked)', 2.52),
  ('COc1ccc(S(=O)(=O)N(CC(C)C)CC(O)C(Cc2ccc(N(C)Cc3ccccc3-n3nc4c(c3C(=O)O)CC(C)(C)CC4)cc2)NC(=O)OC2COC3(C)OCCC23)cc1 (centres unmarked)', 2.33),
  ('COc1ccc(S(=O)(=O)N(CC(C)C)CC(O)C(Cc2ccc(OCc3cccc(-c4sc5c(c4C(=O)O)CC(C)(C)CC5)c3C)cc2)NC(=O)OC2COC3(C)OCCC23)cc1 (centres unmarked)', 1.88),
  ('CC1(C)CCc2sc(NC(=O)c3ccccc3CNc3ccc(CC(NC(=O)OC4COC5(C)OCCC45)C(O)CN(CC4CCC4)S(=O)(=O)c4ccc5c(c4)OCO5)cc3)c(C(=O)O)c2C1 (centres unmarked)', 2.55);

Ask | Query (compound): COc1ccc(S(=O)(=O)N(CC(C)C)CC(O)C(Cc2ccc(OCc3ncccc3-c3ccc(-c4sc5c(c4C(=O)O)CC(C)(C)CC5)cc3)cc2)NC(=O)OC2COC3(C)OCCC23)cc1 (centres unmarked) ; field requested: IC50
Reply | 1.09

* * *

biological target: HIV-1 PR (Human immunodeficiency virus type 1 group M subtype B); assay: HIV-protease inhibitory activity assay (FRET peptide substrate); conditions: Test Example 1
test_readout: pIC50
pIC50 is defined as minus the log10 of a concentration measured in mol/L.

Here is how some molecules turned out for pIC50.
INSERT INTO results (molecule, test_readout, recorded_measurement) VALUES
  ('COc1ccc(S(=O)(=O)N(CC(C)C)CC(O)C(Cc2ccc(OCc3ccccc3-c3sc4c(c3C(=O)O)CCC(=O)C4)cc2)NC(=O)OC2COC3OCCC23)cc1 (centres unmarked)', 'pIC50', 8.81),
  ('CCCCCN(Cc1ccccc1-c1sc2c(c1C(=O)O)CC(C)(C)CC2)c1ccc(CC(NC(=O)OC2COC3(C)OCCC23)C(O)CN(CC(C)C)S(=O)(=O)c2ccc(OC)cc2)cc1 (centres unmarked)', 'pIC50', 8.33),
  ('COc1ccc(S(=O)(=O)N(CC(C)C)CC(O)C(Cc2ccc(N(C)CC3CCCCC3C(=O)Nc3sc4c(c3C(=O)O)CC(C)(C)CC4)cc2)NC(=O)OC2COC3(C)OCCC23)cc1 (centres unmarked) [Compound I-622]', 'pIC50', 8.43),
  ('COc1ccc(S(=O)(=O)N(CC(C)C)CC(O)C(Cc2ccc(N(C)CC(=O)Nc3sc4c(c3C(=O)O)CC(C)(C)CC4)cc2)NC(=O)OC2COC3(C)OCCC23)cc1 (centres unmarked)', 'pIC50', 8.55);

Read the next record carefully.
Ask | Query (molecule): CC(C)CN(C[C@@H](O)[C@H](Cc1ccc(OCc2ccccc2-c2sc3c(c2C(=O)O)CC(C)(C)CC3)cc1)NC(=O)O[C@H]1CO[C@@]2(C)OCC[C@@H]12)S(=O)(=O)c1ccc(N)c(CCC(N)=O)c1 ; field requested: pIC50
Reply | 8.91

* * *

target: UniProtKB P04585; experiment: HIV-protease inhibitory activity assay (FRET peptide substrate); conditions: Test Example 1
test_readout: pIC50
pIC50 is defined as minus the log10 of a concentration measured in mol/L.

Here is how some molecules turned out for pIC50.
INSERT INTO measurements (molecule, recorded_measurement) VALUES
  ('CC(C)CN(CC(O)C(Cc1ccc(OCc2ccc(-c3ccc(F)cc3F)nc2C(=O)O)cc1)NC(=O)OC1COC2OCCC12)S(=O)(=O)c1ccc2ncsc2c1 (centres unmarked)', 9.15),
  ('COc1ccc(S(=O)(=O)N(CC(C)C)CC(O)C(Cc2ccc(NCc3ccccc3-c3ccccc3C(=O)O)cc2)NC(=O)OC2COC3(C)OCCC23)cc1 (centres unmarked)', 8.71),
  ('COc1ccc(S(=O)(=O)N(CC(C)C)CC(O)C(Cc2ccc(NCc3cc(OC)c(OC)cc3C(=O)Nc3sc4c(c3C(=O)O)CC(C)(C)CC4)cc2)NC(=O)OC2COC3(C)OCCC23)cc1 (centres unmarked)', 8.63),
  ('COc1ccc(S(=O)(=O)N(CC(C)C)CC(O)C(Cc2ccc(OCc3ccccc3-c3ccc(-n4nc5c(c4C(=O)O)CC(C)(C)CC5)cc3)cc2)NC(=O)OC2COC3(C)OCCC23)cc1 (centres unmarked)', 8.50);

Read the next record carefully.
Ask | Query (molecule): COc1ccc(S(=O)(=O)N(CC(C)C)CC(O)C(Cc2ccc(N(C)Cc3ccc(-c4sc5c(c4C(=O)O)CC(C)(C)CC5)cc3)cc2)NC(=O)OC2COC3(C)OCCC23)cc1 (centres unmarked) ; field requested: pIC50
Reply | 8.57

* * *

experiment: Evaluation of total body clearance (CLtot), intravenous administration; type: in vivo, Sprague-Dawley (SD); conditions: rat (SD), intravenous administration 0.5-10 mg/kg; CLtot = dose/AUC
I would appreciate it if you labelled entries satisfied when rat_CLt is 2 mL/min/kg or higher, otherwise not satisfied.

INSERT INTO assay_data (compound, classification) VALUES
  ('COc1ccc(S(=O)(=O)N(CC(C)C)CC(O)C(Cc2ccc(N3CCC(Cc4ccccc4-c4sc5c(c4C(=O)O)CC(C)(C)CC5)CC3)cc2)NC(=O)OC2COC3(C)OCCC23)cc1 (centres unmarked) [Compound I-666]', 'not satisfied'),
  ('COc1ccc(S(=O)(=O)N(CC(C)C)C[C@@H](O)[C@H](Cc2ccc(CCc3sc4c(c3C(=O)O)CC(C)(C)CC4)cc2)NC(=O)O[C@H]2CO[C@@]3(C)OCC[C@@H]23)cc1 [Compound I-12]', 'satisfied'),
  ('COc1ccc(S(=O)(=O)N(CC(C)C)CC(O)C(Cc2ccc(NCc3cc(F)ccc3-c3sc4c(c3C(=O)O)CC(C)(C)CC4)cc2)NC(=O)OC2COC3(C)OCCC23)cc1 (centres unmarked) [Compound I-271]', 'satisfied');

Ask | Evaluate COc1ccc(S(=O)(=O)N(CC(C)C)CC(O)C(Cc2ccc(N3CCC(c4ccccc4-c4sc5c(c4C(=O)O)CC(C)(C)CC5)C3)cc2)NC(=O)OC2COC3(C)OCCC23)cc1 (centres unmarked) [Compound I-522] : rat_CLt at minimum 2 mL/min/kg?
Reply | not satisfied

Ask | Same for COc1ccc(S(=O)(=O)N(CC(C)C)CC(O)C(Cc2ccc(OCc3ccccc3-c3sc4c(c3C(=O)O)CC(C)(C)CC4)cc2)NC(=O)OC2CC3OCC(O)C3C2)cc1 (centres unmarked) [Compound I-29]
Reply | not satisfied

* * *

target: HIV-1 PR (Human immunodeficiency virus type 1 group M subtype B, UniProt P04585); test: HIV-protease inhibitory activity assay (FRET peptide substrate); settings: Test Example 1
test_readout: IC50 (nM)
The figure you give is taken to be in nM; do not add the unit.

INSERT INTO results (compound, recorded_measurement) VALUES
  ('COc1ccc(S(=O)(=O)N(CC(C)C)CC(O)C(Cc2ccc(OCc3ccccc3-c3sc4c(c3C(=O)O)CC(C)(C)CC4)cc2)NC(=O)OC2COC3OCCC23)cc1 (stereo not drawn) [Compound I-826]', 1.18),
  ('COc1ccc(S(=O)(=O)N(CC(C)C)CC(O)C(Cc2ccc(NCc3ccc(-c4ccccc4-c4sc5c(c4C(=O)O)CC(C)(C)CC5)cc3)cc2)NC(=O)OC2COC3(C)OCCC23)cc1 (stereo not drawn) [Compound I-530]', 8.31);

Ask | Query (compound): COc1ccc(S(=O)(=O)N(CC(C)C)CC(O)C(Cc2ccc(OC3CCN(c4ncccc4-c4sc5c(c4C(=O)O)CC(C)(C)CC5)C3)cc2)NC(=O)OC2COC3(C)OCCC23)cc1 (stereo not drawn) [Compound I-355] ; field requested: IC50
Reply | 2.35

* * *

target: HIV-1 PR (Human immunodeficiency virus type 1 group M subtype B, UniProt P04585); assay: HIV-protease inhibitory activity assay (FRET peptide substrate); settings: Test Example 1
Below, each entry is listed with its recorded IC50.
Record the result as a number with its unit.

Here is how some compounds turned out for IC50.
INSERT INTO assay_data (compound, recorded_measurement) VALUES
  ('COc1ccc(S(=O)(=O)N(CC(C)C)CC(O)C(Cc2ccc(N3CCC(Cc4ccccc4-c4sc5c(c4C(=O)O)CC(C)(C)CC5)CC3)cc2)NC(=O)OC2COC3(C)OCCC23)cc1 (centres unmarked)', '4.7 nM'),
  ('COc1ccc(S(=O)(=O)N(CC(C)C)CC(O)C(Cc2ccc(N(C)Cc3ncccc3C(=O)Nc3sc4c(c3C(=O)O)CC(C)(C)CC4)cc2)NC(=O)OC2COC3(C)OCCC23)cc1 (centres unmarked)', '2.27 nM'),
  ('CC1(C)CCc2sc(-c3ccccc3CNc3ccc(CC(NC(=O)OC4COC5(C)OCCC45)C(O)CN(CC4CCCC4)S(=O)(=O)c4ccc5c(c4)OCO5)cc3)c(C(=O)O)c2C1 (centres unmarked)', '2.43 nM');

Ask | Query (compound): COc1ccc(S(=O)(=O)N(CC(C)C)CC(O)C(Cc2ccc(N(C)c3cccc(-c4sc5c(c4C(=O)O)CC(C)(C)CC5)c3)cc2)NC(=O)OC2COC3(C)OCCC23)cc1 (centres unmarked) ; field requested: IC50
Reply | 2.49 nM

Ask | Same for COc1ccc(S(=O)(=O)N(CC(C)C)CC(O)C(Cc2ccc(OCCNC(=O)c3cc(Cl)cc(Cl)c3O)cc2)NC(=O)OC2COC3(C)OCCC23)cc1 (centres unmarked)
Reply | 1.83 nM

Ask | Same for COc1ccc(S(=O)(=O)N(CC(C)C)CC(O)C(Cc2ccc(N(C)CCCc3sc4c(c3C(=O)O)CC(C)(C)CC4)cc2)NC(=O)OC2COC3(C)OCCC23)cc1 (centres unmarked)
Reply | 2.13 nM

Ask | Same for COc1ccc(S(=O)(=O)N(CC(C)C)CC(O)C(Cc2ccc(NCc3cc(Oc4ccccc4)ccc3-c3sc4c(c3C(=O)O)CC(C)(C)CC4)cc2)NC(=O)OC2COC3(C)OCCC23)cc1 (centres unmarked)
Reply | 8.75 nM

Ask | Same for COc1ccc(S(=O)(=O)N(CC(C)C)CC(O)C(Cc2ccc(NCc3cc(-c4sc5c(c4C(=O)O)CC(C)(C)CC5)ccc3F)cc2)NC(=O)OC2COC3(C)OCCC23)cc1 (centres unmarked)
Reply | 3.24 nM

Ask | Same for COc1ccc(S(=O)(=O)N(CC(C)C)CC(O)C(Cc2ccc(NCc3cc(C)c(-c4sc5c(c4C(=O)O)CC(C)(C)CC5)cc3C)cc2)NC(=O)OC2COC3(C)OCCC23)cc1 (centres unmarked)
Reply | 5.45 nM

Ask | Same for COc1ccc(S(=O)(=O)N(CC(C)C)CC(O)C(Cc2ccc(NCc3cnc4ccc(-c5sc6c(c5C(=O)O)CC(C)(C)CC6)cn34)cc2)NC(=O)OC2COC3(C)OCCC23)cc1 (centres unmarked)
Reply | 2.06 nM

Ask | Same for COc1ccc(S(=O)(=O)N(CC(C)C)CC(O)C(Cc2ccc(N3CCC(Oc4cc5ccccc5cc4-c4sc5c(c4C(=O)O)CC(C)(C)CC5)C3)cc2)NC(=O)OC2COC3(C)OCCC23)cc1 (centres unmarked)
Reply | 1.96 nM

Ask | Same for COc1ccc(S(=O)(=O)N(CC(C)C)CC(O)C(Cc2ccc(N(C)Cc3cccc(C(F)(F)F)c3-c3sc4c(c3C(=O)O)CC(C)(C)CC4)cc2)NC(=O)OC2COC3(C)OCCC23)cc1 (centres unmarked)
Reply | 5.5 nM

Ask | Same for COc1ccc(S(=O)(=O)N(CC(C)C)CC(O)C(Cc2ccc(OCC3CCCN(c4ccc(C#N)cc4-c4sc5c(c4C(=O)O)CC(C)(C)CC5)C3)cc2)NC(=O)OC2COC3(C)OCCC23)cc1 (centres unmarked) [Compound I-327]
Reply | 10.4 nM

Ask | Same for COc1ccc(S(=O)(=O)N(CC(C)C)CC(O)C(Cc2ccc(NCc3cc(N4CCOCC4)ccc3-c3sc4c(c3C(=O)O)CC(C)(C)CC4)cc2)NC(=O)OC2COC3(C)OCCC23)cc1 (centres unmarked)
Reply | 2.82 nM

Ask | Same for COc1ccc(S(=O)(=O)N(CC(C)C)CC(O)C(Cc2ccc(N3CCC(Oc4ccc(C(F)(F)F)cc4-c4sc5c(c4C(=O)O)CC(C)(C)CC5)C3)cc2)NC(=O)OC2COC3(C)OCCC23)cc1 (centres unmarked)
Reply | 6.21 nM

Ask | Same for COc1ccc(S(=O)(=O)N(CC(C)C)CC(O)C(Cc2ccc(NCCn3nc4c(c3C(=O)O)CC(C)(C)CC4)cc2)NC(=O)OC2COC3(C)OCCC23)cc1 (centres unmarked)
Reply | 2.29 nM

Ask | Same for COc1ccc(S(=O)(=O)N(CC(C)C)CC(O)C(Cc2ccc(N(Cc3ccccc3-c3sc4c(c3C(=O)O)CC(C)(C)CC4)CC3CCC3)cc2)NC(=O)OC2COC3(C)OCCC23)cc1 (centres unmarked)
Reply | 5.13 nM
